System: LOX IMVI melanoma
assay-details: NCI tumour cell line growth inhibition, 48 h; in the data active = GI50 below about 0.43 µM; inactive = the rest
API: response.call in YES (active), NO (inactive)

N=C(N)c1ccc(-c2ccc(-c3ccco3)o2)cc1	NO
O=C(CCCCCn1c2ccccc2c2c3c(c4c5ccccc5[nH]c4c21)C(=O)N(O)C3=O)N1CCOCC1	NO
COC(=O)C1=C(O)C(C(=O)OC)[C@@]2(O)[C@@H](C(=O)OC)C(c3ccc(OC(=O)C(Cc4ccccc4)NC(C)=O)cc3)C[C@@H]1[C@@H]2C(=O)OC (stereo partly drawn)	NO
COc1ccc(/C(C#N)=C/c2nc3c(N4CCOCC4)nc(Cl)nc3n2C)cc1OC	YES
O=c1cc(N2CCOCC2)oc2c(-c3ccccc3)cccc12	NO
CC(=O)c1c[nH]c2ccc(-c3ccnc(Nc4ccc(NC(=O)c5cccc(F)c5)c(CN5CCOCC5)c4)n3)cc12	YES
O=C1/C(=C/c2ccc(F)cc2)CN(Cc2cn(CCNc3ccnc4cc(Cl)ccc34)nn2)C/C1=C\c1ccc(F)cc1	NO

Then there is this compound:
Hey, what did the test say about COc1ccc(-c2ccc(/C=N/n3cnn(CN4CCN(C)CC4)c3=S)o2)c([N+](=O)[O-])c1 ?
NO

----------
Tested on: 786-0 renal
assay-details: NCI tumour cell line growth inhibition, 48 h
Where a SMILES comes first, the peptide text is derived from it. The star is where a group is joined. Boc = CC(C)(C)OC(=O)*; OBn = c1ccc(CO*)cc1; Bn = c1ccc(C*)cc1
measured-quantity: TGI

Worked set:
O=C(NC12CC3CC(CC(C3)C1)C2)n1cnc2cncnc21	> 100 µM
O=C1N2CCN=C2c2ccccc2C1(O)c1ccccc1 (centres undefined)	> 100 µM

Lab note: 786-0 renal assay, enter TGI for CCSc1sc(-c2ccc(C)cc2)nc1[P+](c1ccccc1)(c1ccccc1)c1ccccc1 here
1.57 µM

Look up and report measured TGI (786-0 renal) for the following compound: CC(=O)Nc1ccc(S(=O)(=O)/N=c2/sc(S(N)(=O)=O)nn2C)cc1
> 100 µM

Supply TGI measured with 786-0 renal for COc1cc(Oc2cnc3cc(N)cc(N)c3n2)cc(OC)c1OC .
> 100 µM

Report the value of TGI obtained on 786-0 renal for CC(C)n1c2c(c3ccccc3c1=O)C(=O)c1ccccc1-2 .
> 100 µM

Under 786-0 renal: report TGI of C[N+](C)(C)CC(=O)NC(=O)N/N=C\C(CC#N)CN(Cc1ccccc1)Cc1ccccc1 (centres undefined) .
> 100 µM

Give TGI; test system 786-0 renal; compound COc1cc(C(C)(C)C)c(OC(=O)/C=C/C(=O)O/C=C/[N+](=O)[O-])c(C(C)(C)C)c1
> 100 µM

State measured TGI of the compound Clc1ccc2nc3c(c(-c4ccccc4)nn3-c3ccccc3)c(-c3ccccc3)c2c1 with 786-0 renal.
> 100 µM

Output reported TGI of the compound COc1ncn(C2C=C(CO)C(O)C2O)c(=O)n1 (centres undefined) on 786-0 renal.
> 100 µM

For 786-0 renal, give the measured TGI of the entry CC(C)CC(NC(=O)C(CCC(=O)OCc1ccccc1)NC(=O)OC(C)(C)C)C(=O)NC(COCc1ccccc1)C(=O)NC(Cc1ccccc1)C(=O)O (centres undefined) (Boc-E(OBn)LS(Bn)F-OH; configuration not given here)
> 100 µM

Specify the recorded TGI for COc1cc(CNc2nc3cc(C(F)(F)F)ccc3nc2C(=O)O)cc(OC)c1OC , system: 786-0 renal.
59.1 µM

Report the value of TGI obtained on 786-0 renal for COc1ccc(/C=C/C=C2C(=O)NC(=S)NC2=O)cc1 .
5.47 µM

Output reported TGI of the compound Cc1cc(S(=O)(=O)Nc2nc(N)n(-c3ccccc3)n2)c(S)cc1Cl on 786-0 renal.
> 100 µM

Recall the reported TGI of N.N.NCCCCN.O=C([O-])CCl.O=C([O-])CCl.O=C([O-])CCl.O=C([O-])CCl.[Pt+4].[Pt+4] on 786-0 renal and write it down.
> 50 µM

Report value only: TGI, 786-0 renal, NS(=O)(=O)OC[C@H]1O[C@@H](n2cnc3c(N[C@H]4CCc5ccccc54)ncnc32)[C@H](O)[C@@H]1O
0.373 µM

Would you please give the reported TGI of Cc1cc(C)cc(NC(=O)CCC(=O)C2CCC/C2=N\NC(=O)C(=O)NN)c1 (centres undefined) with 786-0 renal?
> 100 µM

Please look at CCCCC(=O)Nc1ccc2cc(C(=O)OC)c(=O)[nH]c2n1 and tell me its recorded TGI on 786-0 renal.
> 100 µM

Retrieve TGI on 786-0 renal; query CCOC(=O)C(NC(=O)Nc1ccccc1)(Nc1cccc(Cl)c1)C(F)(F)F (centres undefined)
> 100 µM

----------
Test system: A549 NSCLC
assay-details: NCI tumour cell line growth inhibition, 48 h
measured-quantity: TGI

CN(CCN(C)Cc1ccc(Cl)c(Cl)c1)CCN1CCCC1	> 100 µM
CCCCc1c2c(nc3c1CCc1cc(C=O)c(N)nc1-3)/C(=C/c1ccccc1)CCC2	61.5 µM
CC(=O)c1c[nH]c2ccc(-c3ccnc(Nc4ccc(NC(=O)c5cccc(F)c5)c(CN5CCOCC5)c4)n3)cc12	> 35.5 µM
C=C1c2c(C)nn(-c3ccccc3)c2N(C)C23C[C@@H]1C1(C)c4c(C)nn(-c5ccccc5)c4N(C)C(C)(C[C@H]12)C3 (stereo partly specified)	> 100 µM
CCCc1c(OC)c(O)c2c(=O)cc(OC)c3c4c(OC)cc(=O)c5c(O)c(OC)c(CCC)c(c1c23)c54	25.8 µM

Write down measured TGI (A549 NSCLC) for this compound. Cc1ccc(NC(=O)C(=O)C2C(=O)C3=C(CC2(C)C)NC2C=CC=CC2S3)c(C)c1 (stereo unspecified)
> 100 µM

# return TGI of CC(C)OCC(O)COc1cc(=O)oc2ccccc12 (stereo unspecified) (system: A549 NSCLC)
> 100 µM

Look up and report measured TGI (A549 NSCLC) for the following compound: COc1cc(CNc2nc3cc(C(F)(F)F)ccc3nc2C(=O)O)cc(OC)c1OC
61.5 µM

----------
System: MCF7 breast
assay-details: NCI tumour cell line growth inhibition, 48 h
measured-quantity: TGI (µM)
Field format: number, assumed µM, no unit text.

System MCF7 breast. Read-out TGI. Item CCCc1c(OC)c(O)c2c(=O)cc(OC)c3c4c(OC)cc(=O)c5c(O)c(OC)c(CCC)c(c1c23)c54 . Report value.
26.5

// output TGI; input CCCCOP(=O)(OCCCC)C(NS(=O)(=O)c1ccccc1)(C(=O)OCC)C(F)(F)F (configuration not stated) ; system MCF7 breast
76.1

Tell me its TGI on MCF7 breast: C=CC[n+]1c(/C=C2\Sc3ccccc3N2C)sc(-c2ccccc2)c1-c1ccccc1
1.77

// fetch TGI; item: CN1CCN(c2nc(NCCNc3ccnc4cc(Cl)ccc34)c3ccccc3n2)CC1 ; system: MCF7 breast
13.9

Please indicate recorded TGI of C=CCCCN1C(=O)C2C3c4ccccc4C(C=O)(c4ccccc43)C2C1=O (configuration not stated) measured with MCF7 breast.
28.5

Give TGI; test system MCF7 breast; compound COc1ccc(-c2ccc(/C=N/n3cnn(CN4CCN(C)CC4)c3=S)o2)c([N+](=O)[O-])c1
97.4

Provide MCF7 breast TGI reading for CSc1nc(NC2CC2)c2c(n1)Sc1nc3ccccc3n1N=C2 .
96.2

// fetch TGI for COC(=O)C1=C(O)C(C(=O)OC)[C@@]2(O)[C@@H](C(=O)OC)C(c3ccc(OC(=O)C(Cc4ccccc4)NC(C)=O)cc3)C[C@@H]1[C@@H]2C(=O)OC (some centres not stated) ; system: MCF7 breast
95.3

// fetch TGI for COC(=O)c1ccc2c(c1)CC1(C2)Cc2ccc3c(c2C1)CCC3 (configuration not stated) ; system: MCF7 breast
81.5

Output reported TGI of the compound O=C1CCCc2ccc3c(c21)CC1(Cc2cc4c(cc2C1)CCCC4)C3 on MCF7 breast.
56.7

Recall the reported TGI of Nc1c2c(nc3ccccc13)-c1ccccc1CCC2 on MCF7 breast and write it down.
28.6

State measured TGI of the compound COc1c2c(cc3oc(=O)ccc13)OC(C)(C)C=C2 with MCF7 breast.
57.8

Under MCF7 breast: report TGI of COc1cc(C(C)(C)C)c(OC(=O)/C=C/C(=O)O/C=C/[N+](=O)[O-])c(C(C)(C)C)c1 .
40.4

# return TGI of O=C1/C(=C/c2ccc(F)cc2)CN(Cc2cn(CCNc3ccnc4cc(Cl)ccc34)nn2)C/C1=C\c1ccc(F)cc1 (system: MCF7 breast)
1.75

For MCF7 breast, give the measured TGI of the entry COc1ccc(/C(C#N)=C/c2nc3c(N4CCOCC4)nc(Cl)nc3n2C)cc1OC
1.75
